molecular target: UniProt:Q92918; experiment: HPK1 Kinase Binding Assay; settings: active HPK1 (SignalChem M23-11G), tracer 222, LanthaScreen Eu-Anti GST antibody, one hour at 25° C.
pKi: −log10 of the molar value.
resultType: pKi

Worked cases, answers included:
compound	pKi
COc1cccc(F)c1-c1nccc(C(=O)Nc2ccc3c(c(I)nn3C)c2N2CCC(N(C)C)CC2)n1 [Example 27]	> 7.00
COc1cccc(F)c1-c1nccc(C(=O)Nc2cc(F)c3c(cnn3C)c2N2CCC3(CCNC3=O)C2)n1 (single isomer, unassigned; peak 2) [8, Peak 2]	> 7.00
COc1cccc(F)c1-c1nccc(C(=O)Nc2cc(F)c3c(cnn3C)c2N2CCC[C@@H]2CN)n1 (single isomer, unassigned; peak 2) [10, Peak 2]	> 7.00
COc1cccc(F)c1-c1nccc(C(=O)Nc2cc(F)c3c(cnn3[C@@H]3CCOC3)c2N2C[C@@H](N)C[C@H]2CO)n1 [Example 32]	> 7.00
COc1cccc(F)c1-c1nccc(C(=O)Nc2cc(F)c3c(cnn3C)c2-c2ccccc2CO)n1 [Example 23]	> 7.00
COc1cccc(F)c1-c1nccc(C(=O)Nc2cc(C)c3nn(C)cc3c2N2CCNCC2)n1 [18, Peak 1]	> 7.00
COc1cccc(F)c1-c1nccc(C(=O)Nc2cc(C)c3c(cnn3C)c2N2CCNCC2)n1 [18, Peak 2]	> 7.00
COc1cccc(F)c1-c1nccc(C(=O)Nc2cc(F)c3c(cnn3C)c2N2CCOCC2)n1 [7, Peak 2]	> 7.00

stdin: GET /values?readout=pKi&system=UniProt:Q92918&item= COc1cccc(F)c1-c1nccc(C(=O)Nc2cc(C#N)c3c(cnn3C)c2N2CCC[C@@H](N)C2)n1 (single isomer, unassigned; peak 2) [15, Peak 2]
stdout: > 7.00

stdin: Query pKi on UniProt:Q92918 for COc1cccc(F)c1-c1nccc(C(=O)Nc2ccc3c(c(-c4cnn(C)c4)nn3C)c2N2CCC(N(C)C)CC2)n1 [Example 30]
stdout: > 7.00

stdin: Any idea what pKi came out for CNC(=O)c1cc(NC(=O)c2ccnc(-c3c(F)cccc3OC)n2)c(N2CCC[C@@H](N)C2)c2cn(C)nc12 (single isomer, unassigned; peak 1) [16, Peak 1] on UniProt:Q92918?
stdout: 5.30 to 6.30

stdin: Find pKi (UniProt:Q92918) for the entry COc1cccc(F)c1-c1nccc(C(=O)Nc2cc(F)c3nn(C)cc3c2N2CCOCC2)n1 [7, Peak 1]
stdout: > 7.00

stdin: Observed pKi on UniProt:Q92918 for COc1cccc(F)c1-c1nccc(C(=O)Nc2cc(F)c3c(cnn3C)c2-c2ccccc2C)n1 (single isomer, unassigned; peak 2) [14, Peak 2] , please.
stdout: > 7.00

stdin: What reported pKi corresponds to COc1cccc(F)c1-c1nccc(C(=O)Nc2cc(F)c3nn(C)cc3c2-c2ccccc2C)n1 (single isomer, unassigned; peak 1) [14, Peak 1] on UniProt:Q92918?
stdout: > 7.00

----------
# Ki per entry for HPK1 (Homo sapiens (Human), UniProt Q92918)

// below: answered compounds
                                   compound                         measurementtarget  resultvalue
0  COc1cccc(F)c1-c1nccc(C(=O)Nc2cc(F)c3nn(C)cc3c2N2CCC3(CCNC3=O)C2)n1 (single isomer, unassigned; peak 1) [8, Peak 1]  HPK1 (Homo sapiens (Human), UniProt Q92918)     < 100 nM
1  COc1cccc(F)c1-c1nccc(C(=O)Nc2cc(F)c3c(cnn3C)c2-c2cccnc2)n1  HPK1 (Homo sapiens (Human), UniProt Q92918)     < 100 nM
2  COc1cccc(F)c1-c1nccc(C(=O)Nc2cc(C#N)c3nn(C)cc3c2N2CCC[C@@H](N)C2)n1 (single isomer, unassigned; peak 1) [15, Peak 1]  HPK1 (Homo sapiens (Human), UniProt Q92918)     < 100 nM
3  COc1cccc(F)c1-c1nccc(C(=O)Nc2cc(F)c3c(cnn3C)c2-c2cccc(CN(C)C)c2)n1  HPK1 (Homo sapiens (Human), UniProt Q92918)     < 100 nM

stdin: Recorded Ki for CCNC(=O)N1C[C@@H]2C[C@H]1CN2c1c(NC(=O)c2ccnc(-c3c(F)cccc3OC)n2)cc(F)c2c1cnn2C with HPK1 (Homo sapiens (Human), UniProt Q92918), please?
stdout: < 100 nM

stdin: # returns recorded Ki (system: HPK1 (Homo sapiens (Human), UniProt Q92918)) for COc1cccc(F)c1-c1nccc(C(=O)Nc2cc(F)c3nn(C)cc3c2N2C[C@@H](N)C[C@H]2CO)n1 (single isomer, unassigned; peak 1) [3, Peak 1]
Sequence (Q92918 1-346 limits assumed): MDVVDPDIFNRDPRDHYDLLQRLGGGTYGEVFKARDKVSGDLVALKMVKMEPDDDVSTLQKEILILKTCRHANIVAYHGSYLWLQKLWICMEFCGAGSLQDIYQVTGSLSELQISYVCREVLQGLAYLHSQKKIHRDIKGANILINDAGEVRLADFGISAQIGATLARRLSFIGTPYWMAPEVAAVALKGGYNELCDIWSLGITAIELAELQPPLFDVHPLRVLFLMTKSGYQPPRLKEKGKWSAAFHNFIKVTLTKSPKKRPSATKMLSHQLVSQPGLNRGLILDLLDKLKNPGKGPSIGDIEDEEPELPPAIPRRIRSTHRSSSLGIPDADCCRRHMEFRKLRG
stdout: < 100 nM
